# EXPERIMENTAL TARGET: SARS-CoV-2 Mpro (Severe acute respiratory syndrome coronavirus 2, UniProt P0DTD1)
# PROTOCOL TEXT: SARS-CoV-2 Mpro enzyme assay (FRET)
# Assay type: biochemical
# CONDITION DETAILS: 20 nM Mpro, 30 min preincubation at 30° C., mean n=2, read-out: SARS-CoV-2 Mpro enzyme pKi assay pKi (converted)
ENDPOINT LABEL: log10 Ki (log10 of the value in nM)

# COMPOUND, ENDPOINT LABEL, OBSERVED MEASUREMENT
measured = [
    ("CC(C)(C)[C@H](NC(=O)C(F)(F)F)C(=O)N1C[C@H]2[C@@H]([C@H]1C(=O)NC(CC1CCC1)C(=O)C(N)=O)C2(C)C (stereo partly shown) [Example 4]", "log10 Ki", 1.90),
    ("CC(C)(C)[C@H](NC(=O)C(F)(F)F)C(=O)N1C[C@H]2[C@@H]([C@H]1C(=O)NC(C[C@H]1CCCNC1=O)C(=O)C(=O)NC1CC1)C2(C)C (stereo partly shown) [Example 6]", "log10 Ki", 1.00),
    ("CC1(C)[C@@H]2[C@@H](C(=O)NC(C[C@@H]3CCNC3=O)C(=O)C(=O)NC3CC3)N(C(=O)/C=C/c3ccc(F)cc3F)C[C@@H]21 (stereo partly shown) [Example 7]", "log10 Ki", 1.80),
    ("CC(C)[C@H](NC(=O)C(F)(F)F)C(=O)N1C[C@H]2[C@@H]([C@H]1C(=O)NC(CC1CC1)C(=O)C(N)=O)C2(C)C (stereo partly shown) [Example 3]", "log10 Ki", 1.80),
    ("CC(C)(C)[C@H](NC(=O)C(F)(F)F)C(=O)N1C[C@H]2[C@@H]([C@H]1C(=O)NC(C[C@@H]1CCNC1=O)C(=O)C(=O)NC1CC1)C2(C)C (stereo partly shown) [Example 1]", "log10 Ki", 0.60),
    ("CNC(=O)C(=O)C(CC1CC1)NC(=O)[C@@H]1[C@@H]2[C@H](CN1C(=O)[C@@H](NC(=O)C(F)(F)F)C(C)(C)C)C2(C)C (stereo partly shown) [Example 2]", "log10 Ki", 1.30),
    ("CC(C)C(=O)N[C@H](C(=O)N1C[C@H]2[C@@H]([C@H]1C(=O)NC(C[C@@H]1CCNC1=O)C(=O)C(=O)NC1CC1)C2(C)C)C(C)(C)C (stereo partly shown) [Example 5]", "log10 Ki", 1.20),
]

====

Measured Papp A→B at 60 min, 1 μM, listed per entry.
# Test system: P-glycoprotein (P-gp, MDR1)
# PROTOCOL TEXT: MDCK-MDR1 permeability and P-gp substrate assay
# Type: in vitro ADME, canine
# CONDITION DETAILS: dog, pH 7.4, MDCK-MDR1, apical to basolateral, without P-gp inhibitor
ENDPOINT LABEL: Papp A→B at 60 min, 1 μM (×10⁻⁶ cm/s)

# COMPOUND, OBSERVED MEASUREMENT
rows = [
    ("CC(C)(C)[C@H](NC(=O)C(F)(F)F)C(=O)N1C[C@H]2[C@@H]([C@H]1C(=O)NC(C[C@@H]1CCNC1=O)C(=O)C(=O)NC1CC1)C2(C)C (some centres unmarked)", 0.9),
    ("CNC(=O)C(=O)C(CC1CC1)NC(=O)[C@@H]1[C@@H]2[C@H](CN1C(=O)[C@@H](NC(=O)C(F)(F)F)C(C)(C)C)C2(C)C (some centres unmarked)", 2.2),
]
